Observed Ki, system Melatonin receptor type 1B (Homo sapiens, UniProt P49286).
readoutName: Ki (nM)

> print(dat)
                                smilesentry                                    system  readoutvalue
1  O=C(NCCCc1cccc2c1C[C@@H](CCCCc1ccccc1)O2)C1CC1  Melatonin receptor type 1B (Homo sapiens, UniProt P49286)            30
2  CCCC(=O)NC[C@@H]1C[C@H]1c1cccc2c1C[C@@H](CCCCc1ccccc1)O2  Melatonin receptor type 1B (Homo sapiens, UniProt P49286)             2
3  CCNC(=O)NC[C@@H]1C[C@H]1c1cccc2c1C[C@@H](CCCCc1ccccc1)O2  Melatonin receptor type 1B (Homo sapiens, UniProt P49286)            40
4  CC(=O)NCCCc1cccc2c1C[C@@H](CCCCc1ccccc1)O2  Melatonin receptor type 1B (Homo sapiens, UniProt P49286)             8

A: CCC(=O)NCCCc1cccc2c1C[C@@H](CCCCc1ccccc1)O2
B: CCNC(=O)NCCCc1cccc2c1C[C@@H](CCCCc1ccccc1)O2
Request: // select label with min value of measured Ki from [ A , B ] When you have decided, please share the label of that item.
Result: A
(A: 20 nM, B: 40 nM)

The measurements presented in this section are drawn from ChEMBL document CHEMBL1142000.
